Documented ED50 across a set of molecules
# System: Mus musculus
# experimental protocol: Anticonvulsant activity by using subcutaneous pentylenetetrazole (Metrazol) seizure threshold test in mice
# Type: functional
# experimental conditions: sc
assay endpoint: ED50

>  <molecule>
O=C1CC(c2ccc(Cl)cc2)CN1 (centres undefined)

>  <reading>
41 mg/kg

$$$$
>  <molecule>
NC(=O)CCC/N=C(\c1ccc(Cl)cc1)c1cc(F)ccc1O [PROGABIDE]

>  <reading>
30 mg/kg

$$$$
>  <molecule>
CCCC(CCC)C(=O)O

>  <reading>
149 mg/kg

$$$$
>  <molecule>
CCC1(c2ccccc2)C(=O)NC(=O)NC1=O

>  <reading>
13 mg/kg

$$$$
